Assay: protein stability index of a GFP-peptide fusion (GPS, HEK-293T) (PSI 1-6); higher = more stable;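 further: 24-mer peptide tiles fused after GFP, lentivirally expressed, FACS-sorted into six equal bins by GFP/DsRed ratio, decoded by Illumina sequencing, PSI is the read-weighted mean bin number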
Conditions: treatment: DMSO; c terminus: a fixed tail appended
Consider the reported protein stability index of an entry and match it to a band in A = under 3, B = from 3 up to 4, C = 4 and over

FRQRCLERMRNSRDRLLNRYRQAG [RPAIN] ... B
LEAEKLVMFQRRYYKPGLLMMCFI [SCD] ... B
ELNKQVVSSSEQLQSCQAEIIELR [KRT34] ... B
LNGLQHLKAKKVWYDMFRDAAAIL [ZMAT5] ... A
FDDEEPRKFYVHIKPAPARAPACS [FCHO1] ... B
WKCKNARGQVGLVPKNYVVVLSDG [NCK2] ... A
TFASLETVGIYFGLVYRIHSVLQG [TMEM40] ... B
PIGILTTSYCELLQNKVPLLGSST [PPTC7] ... A
RRILDELTLCKSDLESQVESLREE [KRT34] ... C
VSKTLPSTWSDPSVNISLDNLLPG [CLINT1] ... B
IIHEAGYSEEECKQYKAVVYSNTI [GNAI1] ... A
LTRLRTASGHEPGGSAVCASRVKL [PLEKHN1] ... B
SIYLVGGYSWSMGAYKSSTICYCP [KLHL14] ... A
KQYQQRAFGWFRCSSCQRSWASAQ [RTP4] ... A
MLRWLIGGGREPQGLAEKSPLQTI [WDR41] ... A
VERDNMEEDNVEESEEEGPWEPPV [HDAC6] ... C
AKPRLAERMTTREKKVLEAGMGKV [HDAC6] ... C
VKYIVERTMLDFPQHVSSDKEVRA [NLN] ... A
GLELALACDIRVAASSAKMGLVET [AUH] ... A
EEVKTPEEEMRSHYVAQTGILWLL [GAGE1] ... A
PETVMTTLYTAKKYAVPALEAHCV [BTBD1] ... A
EKAAALERQLKVMASDHREALLDR [LRRC45] ... C
NRNQGLNRLMLAVRDMMANFHLND [TCF25] ... A
LGTDPTHVMGLYPDLLPTDYRKQL [VPS39] ... B
IRNEQFAIRRFQSMPVRLLGHSPV [CDC25B] ... A
CTNSPAIVRFSGQSRGVPAVSESY [FBXO34] ... B
FDEPFLTRNVQSVSIIDTELKVKD [TRIP13] ... C
KTGILILILSIIFIEGYCTPEEVI [MAGEA10] ... B
TIAPTLIADLFVADQRSRMLSIFY [SPNS1] ... A
ITMYAVGVGKAIEEELQEIASEPT [MATN2] ... B
GPWLEWEIMLQYCFPRLDINVSKG [PRIM1] ... A
YSSEDSTLASVPPAATFGADDLVL [ELF3] ... C
HKLDLNTREWTQLKPNNLSCDLPE [KLHDC10] ... C
TTYLKTIEVFDPDANTWRLYGGMN [KLHL20] ... A
ADIPSVAFSSRLGGSRGAPGLLMA [DCAF4] ... A
CGSRRERCGYRLVRRQRSADEQLH [ESR2] ... A
TFRQYCGAACTCHVRNPLSACSIM [RNF208] ... A
LGDALAGPPRAPGRSGWPAGGAPG [HES6] ... B

---

protein stability index values by entry
Test: protein stability index of a GFP-peptide fusion (GPS, HEK-293T) (PSI 1-6); higher = more stable
Conditions: treatment: MLN4924 1 uM, 8 h; c terminus: a fixed tail appended
READOUT_KIND: protein stability index

IFRSKLKNRPSSEGSINKILSGLD [CDC14A] ... 2.69
ELTATFTKFDRDGNRILDEKEQEK [PKD2L1] ... 5.17
PDLLPTDYRKQLQYPNPLPVLSGA [VPS39] ... 3.43
YLLDRAVDSFETQRNGLVFIYDMC [PTPN9] ... 2.29
AIAPFQSAGSPPELQGLPELHEEC [NET1] ... 4.85
FNNGAHMSLLPDKKTVHYYAELGQ [PLK2] ... 2.66
AKPEVLSIQWPGKRSSRRVQRHNS [NECAB1] ... 4.37
TNNKVYAAKIIPHSRVAKPHQREK [PLK2] ... 4.08
CSIALLRALATSNARAQQRAAAQQ [GNAS] ... 2.27
AGVGLSGGAAGAGWCIFVYNLSPE [ELAVL3] ... 2.71
MSLLHLGALYGITLIPTCKFYTWL [SCD] ... 3.74
FLEQRPQSPTLEFLLRNSQRTVGQ [EDARADD] ... 3.43
SVHVPGPHAMTIQELVDYVNARQK [PTPN9] ... 3.47
ASTTRLYLRKGRGETRICKIYDSP [RAD51] ... 3.19
LNYTYKRFEGLTQRGSIPTYMKAG [STK38L] ... 2.67
ALNEQACRNGSSIQIAFEEVPQLP [C2CD2L] ... 4.02
ARLRPGLAVLGADERIFSLTRRLA [HAGHL] ... 2.78
SWVDDTPFNKVQSARFWIPGEPNN [CD207] ... 2.51
YVALFPCNECAKLIIQAGIKEVIF [DCTD] ... 2.96
FDTFIQKTKKLYIDSRARRNLGSI [SEC22B] ... 2.22
SSRPENIPPKEFHFRHPKRSVSLS [BNIP3L] ... 4.24
RYLTFFHNYNILIATLRVALPSVM [MCOLN1] ... 3.05
PVPPGWNPNSSSGKGSGGNAGSYI [DLX1] ... 3.93
FLLSVYAPGSSVEYQCQNLYQLEG [CFHR2] ... 2.52

---

Test: protein stability index of a GFP-peptide fusion (GPS, HEK-293T) (PSI 1-6); higher = more stable
Conditions: treatment: MLN4924 1 uM, 8 h; c terminus: a fixed tail appended
protein stability index values by entry
READOUT_KIND: protein stability index

LPISTVREVALLRRLEAFEHPNVV [CDK4] ... 2.71
PETVMTTLYTAKKYAVPALEAHCV [BTBD1] ... 2.83
ESDSCVSFEAPLTPLIQQRARDSP [PSD2] ... 4.92
GPDVLETDGLQEVPLCSCRMETPK [EHMT1] ... 4.29
LQWKSSHFERRDNMNDNFLEGEEE [CHGB] ... 5.49
DSDDPSVTLELSQLSMLPHLADLV [VDR] ... 3.62
QSEESDQGKYECVATNSAGTRYSA [PTPRD] ... 5.23
DGIDPFPLLMNRQRVPKVLVENAK [EFHC1] ... 3.97
NAVRQNGQLVRNDSLWHRSDSAPR [MFF] ... 4.07
GCECEDGPDGQEMDPPNPEEVKTP [GAGE1] ... 5.81
KQVCKIAALHGLEETKKLANKYLV [KLHL14] ... 2.35
RVQVQVVERAQQVAVQEQEIARRE [FLOT1] ... 4.76
RQSLEGLSVRSVFFGVFQSFVVLL [CLPTM1] ... 1.99
QIHLDVDNDRTTPSDLDSTGNSLN [DLC1] ... 5.28
YDGLDCQARQFRTFHHPTYGSCYT [SCNN1D] ... 2.59
VFLVDICLLTYGMTSSSAYYYTKV [PKD2L1] ... 2.84
HSCTCVLYTPSNEHFGIVPLEAMY [ALG2] ... 2.41

---

Assay: protein stability index of a GFP-peptide fusion (GPS, HEK-293T) (PSI 1-6); higher = more stable
Conditions: treatment: MLN4924 1 uM, 8 h; c terminus: a fixed tail appended
Respond with 1 (yes) for protein stability index values of 3 and above, 0 (no) for values below.

EVEIVGVQEHARCVHPRGGVIQSV [C18orf25] ... 1 (yes)
QLLLHNTVIFYGADSEQADIARML [ZMYND11] ... 0 (no)
LLDAHILEWHDSLFQILSERQDMY [ZNF511] ... 0 (no)
RKLLESEECRMSGEFPSPVSISII [KRT71] ... 0 (no)
ARRLTRFTGVITQGRNSLWLSDWV [CPXM2] ... 0 (no)
WDLRDQSVVRDLKGYPDGVKSIVV [TLE6] ... 0 (no)
AVPAAATRTTSFKGTSPSSKYVKL [KCTD10] ... 1 (yes)
RAWIPSENIQDITVNIHRLHVKRS [ZMYND11] ... 0 (no)
IDYKTTTILLDGRRVKLQLWDTSG [RAB40B] ... 0 (no)
FSVLMEKLCKKGLAATTSMAYAKL [FANCE] ... 0 (no)
PETLPESSLFSVEANSSNSQKNEK [C8orf76] ... 1 (yes)
TQIKGLKNKPKKMGHIKPDLIDVD [PHTF1] ... 1 (yes)
TIEGTSDDLTVVDAASLRRQIIKL [MFF] ... 1 (yes)
MNRAFSRKKDKTWMHTPEALSKHF [GULP1] ... 0 (no)
KTPPSSCDSTNAAIAKQALKKPIK [KMT5A] ... 1 (yes)
RSLLPSTEYQKQLLAAQVQLQCSP [FBF1] ... 1 (yes)
STLPRSGSSGGQQPSGMKEGVKRY [CHCHD6] ... 1 (yes)
VERDNMEEDNVEESEEEGPWEPPV [HDAC6] ... 1 (yes)
MHDMLLEELAPVGTAHIPPTMHLE [ZNF449] ... 1 (yes)
HLYLLRGLPGSGKTTLARQLQHDF [N4BP2L1] ... 0 (no)
RHWCMKHDELLAEHIKSLLIKNNS [INTS3] ... 0 (no)
AFPYQYPPPPHPYNPHPGFPELGY [DVL3] ... 0 (no)
LAHLAPLFDNPKLDKELRAMLREK [INTS3] ... 0 (no)
DGIPQVYYFGPCGKYNAMVLELLG [CSNK1G3] ... 0 (no)
KTILGNAHDNSEELERARELKEKE [ANKRD44] ... 1 (yes)
ETIEGAPPLWAASAAGHLDVVRSL [FEM1A] ... 1 (yes)
IKEVQKGGPADLAGLEDEDVIIEV [PDZK1] ... 0 (no)
RRILDELTLCKSDLESQVESLREE [KRT34] ... 1 (yes)
EGVIDSSDKEIVAEAERLDVKAMG [EIF5] ... 1 (yes)
GSGLSSRFEEPKGPPARQEDSKEL [CBY2] ... 1 (yes)
LENDTISKQLTLEQLRREKIDLEN [CCDC6] ... 1 (yes)
ELLCELGRPSMVWLSANPCPHCGD [PRAME] ... 0 (no)
LGDALAGPPRAPGRSGWPAGGAPG [HES6] ... 1 (yes)
ITMYAVGVGKAIEEELQEIASEPT [MATN2] ... 1 (yes)
FNMWGFGRVSKQASQPVKKQQENA [WDR41] ... 1 (yes)
GASSCDGCKGFFRRSVRKNHMYSC [HNF4A] ... 0 (no)
DSYIPLHEDLLTRIGEATKPDGTV [NET1] ... 1 (yes)
MQSLDDATKQLDFTRKTLAEKKQE [SASS6] ... 1 (yes)
IEAAVQDRLNEQEGVPSVFNPPPS [FAF2] ... 1 (yes)
VILHLKEDQTEYLEERRVKEVVKK [HSP90AB1] ... 0 (no)
EPEQTGADAAEDEEVDVTSVDPIA [RBBP5] ... 1 (yes)
YNIRTDSWTTVTSMTTPRCYVGAT [KLHL12] ... 0 (no)

This collection of values is drawn from the supplement of paper PMC10567573.
